tested.target: synthetic amyloid fibrils composed of recombinant Vλ6 protein Wil
measurement.description: SPR
Square brackets hold non-standard residues; d marks the D form. Ends that are not written are not given here.
measurement.kind: pKd
Numbers only, as −log10 of the molar value.

binder: GGGYSKAQKAQAKQAKQAQKAQKAQAKQAKQ [peptide p5]
pKd: 7.82

Could I get pKd for every one of these entries?
1. GGGYSKAQKAPAKQAKQPQKAQKAPAKQAKQ [peptide p5(Pro3)]
2. VYKVKTKVKTKVKTKVKT [peptide p5(sheet)]
3. GGGYSKGGKGGGKGGKGGGKGGKGGGKGGKG [peptide p5(coil)]
4. GGG[dY][dS][dK][dA][dQ][dK][dA][dQ][dA][dK][dQ][dA][dK][dQ][dA][dQ][dK][dA][dQ][dK][dA][dQ][dA][dK][dQ][dA][dK][dQ] [peptide p5(D)]

# output
7.15
7.60
7.47
7.66
